Items are presented alongside their recorded pIC50.
molecular target: T1, C-X-C motif chemokine receptor 4 (CXCR4) on Ghost-CXCR4 cells (UniProt P61073 1-352); assay: flow cytometry on cells; competition with APC-labelled anti-CXCR4 antibody clone 12G5 at a fixed concentration close to its KD; Ghost-CXCR4 cells, 50,000 cells/well; ligands serially diluted in PBS; 4 °C, 2 h; PBS with 1% FBS; conditions: one partner purified
T1 construct: CXCR4 stably expressed in Ghost cells (NIH HIV Reagent Program); source: Ghost cells (human osteosarcoma cell line) stably transfected with CXCR4, also expressing CD4; on cells
T1 sequence (P61073 whole entry): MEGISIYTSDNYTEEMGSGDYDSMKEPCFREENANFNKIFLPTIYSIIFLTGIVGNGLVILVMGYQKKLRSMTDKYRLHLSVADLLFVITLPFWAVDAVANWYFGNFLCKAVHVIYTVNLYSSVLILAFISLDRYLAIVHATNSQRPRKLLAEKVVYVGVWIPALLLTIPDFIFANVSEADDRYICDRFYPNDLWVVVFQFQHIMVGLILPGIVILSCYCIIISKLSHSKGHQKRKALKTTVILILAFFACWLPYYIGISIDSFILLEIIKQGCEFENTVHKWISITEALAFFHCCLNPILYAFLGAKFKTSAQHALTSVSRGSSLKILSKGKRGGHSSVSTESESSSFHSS
Square brackets hold non-standard residues; d marks the D form. Ends that are not written are not given here. * marks the point of attachment. DOTA = O=C(O)CN1CCN(CC(=O)O)CCN(CC(=O)*)CCN(CC(=O)O)CC1
Formally, pIC50 is defined as -log10 of the concentration c, with c in mol/L.

Request: Field request: pIC50 | item: ILRWSRKLPCVSK(DOTA) (source: synthetic peptide (Fmoc solid phase synthesis, RP-HPLC purified)) [ligand-1]
Response: 6.60

Request: Field request: pIC50 | item: ILRWSRKLPK(DOTA)-NH2 (N-terminus assumed; SMILES CC[C@H](C)[C@H](N)C(=O)N[C@@H](CC(C)C)C(=O)N[C@@H](CCCNC(=N)N)C(=O)N[C@@H](Cc1c[nH]c2ccccc12)C(=O)N[C@@H](CO)C(=O)N[C@@H](CCCNC(=N)N)C(=O)N[C@@H](CCCCN)C(=O)N[C@@H](CC(C)C)C(=O)N1CCC[C@H]1C(=O)N[C@@H](CCCCNC(=O)CN1CCN(CC(=O)O)CCN(CC(=O)O)CCN(CC(=O)O)CC1)C(N)=O, truncated JM#21 derivative with added C-terminal K(DOTA)-NH2; source: synthetic peptide (Fmoc solid phase synthesis, RP-HPLC purified)) [ligand-3]
Response: 7.01

Request: Field request: pIC50 | item: ILRWSRK(DOTA)-NH2 (also: natLu complexed by DOTA, natLu and 177Lu complexes are written as one molecule; they differ only in the isotope; also called ^177Lu-5; Lu complex of ligand-5; source: synthetic peptide, complexed with natLuCl3; ^177Lu form labelled with 177LuCl3) [^natLu-5]
Response: 6.71

Request: Field request: pIC50 | item: ILRWSRKLPSVSK(DOTA) (as ligand-1 with serine instead of cysteine at position 10; source: synthetic peptide (Fmoc solid phase synthesis, RP-HPLC purified)) [ligand-2]
Response: 6.59

Please turn your attention to the following entry.
Request: Field request: pIC50 | item: [dI]LRWSRKK(DOTA)-NH2 (N-terminus assumed; SMILES CC[C@@H](C)[C@@H](N)C(=O)N[C@@H](CC(C)C)C(=O)N[C@@H](CCCNC(=N)N)C(=O)N[C@@H](Cc1c[nH]c2ccccc12)C(=O)N[C@@H](CO)C(=O)N[C@@H](CCCNC(=N)N)C(=O)N[C@@H](CCCCN)C(=O)N[C@@H](CCCCNC(=O)CN1CCN(CC(=O)O)CCN(CC(=O)O)CCN(CC(=O)O)CC1)C(N)=O, as ligand-4 with isoleucine 1 substituted by D-isoleucine; also called DOTA conjugate of JM#173; source: synthetic peptide (Fmoc solid phase synthesis, RP-HPLC purified)) [ligand-7]
Response: 6.24
